Test: CCTE_Shafer_MEA_acute_cross_correlation_HWHM: CCTE's Neural Acute Assay for Cross Correlation at Half Width at Half Maximum, Shafer Lab (AID 2284026);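 also: percent change per well from pre-dose baseline in spike cross-correlogram half width; hits are a decrease in cross-correlogram half width relative to DMSO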
Calls of active or inactive are those of the source. The calls were made as follows: active = hit-call score of the fitted dose curve at least 0.9, where 1 is the maximum; inactive = score below 0.9.
Pick one and only one: label 1 for active, label 0 for inactive

Look up the recorded call for CC(C)[C@H](C(=O)O[C@H](C#N)c1cccc(Oc2ccccc2)c1)c1ccc(Cl)cc1 in this test.
label 1

Per the records of this test, what outcome belongs to O=[N+]([O-])c1cc(C(F)(F)F)c(Cl)c([N+](=O)[O-])c1Nc1ncc(C(F)(F)F)cc1Cl ?
label 1

Which outcome did this test record for the molecule O=C(O)c1cc(Oc2ccc(C(F)(F)F)cc2Cl)ccc1[N+](=O)[O-] ?
label 0

Identify the outcome logged in this assay for the molecule shown: CC(=NC#N)N(C)Cc1ccc(Cl)nc1
label 0

---

Read-out: Cytochrome P450 4A22 (Homo sapiens) (UniProt Q5TCH4)
Assay: LTEA_HepaRG_CYP4A22: Life Technologies and Expression Analysis (LTEA) Assay for Cytochrome P450 4A22 (CYP4A22) using HepaRG (AID 2283495)
Conditions: mRNA level, 48 h; actives raise or lower the signal
Active and inactive are the calls of the source. Rule for the calls: active = hit-call score of the fitted dose curve at least 0.9, where 1 is the maximum; inactive = score below 0.9.
Please answer using one outcome listed in active, inactive

I would be grateful if you could indicate the recorded call for C[N+]1(C)CCCCC1 .
inactive

Entry COP(=O)(OC)OC(Br)C(Cl)(Cl)Br (centres undefined) : call = ?
inactive

For C#CCC1=C(C)C(OC(=O)C2C(C=C(C)C)C2(C)C)CC1=O (centres undefined) , which call appears in the assay record?
active

Kindly provide the recorded test outcome for the following compound: CCOP(=S)(OCC)Oc1ccc2c(C)c(Cl)c(=O)oc2c1
active

Tell me the assay call for CSc1nc(NC(C)C)nc(NC(C)C)n1 please.
active

For O=c1ccc(=O)[nH][nH]1 , which call appears in the assay record?
inactive

Query: recorded result category for CCOP(=O)(SC(C)CC)N1CCSC1=O (centres undefined) in this test
active

In this assay, the call recorded for CN(C)NC(=O)CCC(=O)O was what?
inactive

Assay result, entry CON=C(C(=O)OC)c1ccccc1CON=C(C)c1cccc(C(F)(F)F)c1 — outcome?
inactive

---

Tested on: Sodium/Iodide Symporter (NIS), SLC5A5 (gene 6528)
Experiment: CPHEA_Stoker_NIS_Inhibition_RAIU: CPHEA's Radioactive Iodide Uptake (RAIU) Assay for Sodium/Iodide Symporter (NIS) Inhibition, Stoker and Laws Labs (AID 2283841)
Inconclusive results are not listed. The source made the active and inactive calls. Rule for the calls: active = hit-call score of the fitted dose curve at least 0.9, where 1 is the maximum; inconclusive = response in the unintended direction; inactive = score below 0.9.
readout.kind: AC50

molecule: FC(F)C(F)(F)OCC(Cn1cncn1)c1ccc(Cl)cc1Cl (stereo not given)
system: Sodium/Iodide Symporter (NIS), SLC5A5 (gene 6528)
AC50: inactive
//
molecule: CCOP(=S)(OCC)OC(Cl)C(Cl)(Cl)Cl (stereo not given)
system: Sodium/Iodide Symporter (NIS), SLC5A5 (gene 6528)
AC50: inactive
//
molecule: CCOC(=O)COc1cc(-c2nn(C)c(OC(F)F)c2Cl)c(F)cc1Cl
system: Sodium/Iodide Symporter (NIS), SLC5A5 (gene 6528)
AC50: inactive
//
molecule: CCCOCC(=Nc1ccc(Cl)cc1C(F)(F)F)n1ccnc1
system: Sodium/Iodide Symporter (NIS), SLC5A5 (gene 6528)
AC50: 29 µM (active)

Please give the measured AC50 for this molecule: CC1(C(=O)Nc2ccc(O)c(Cl)c2Cl)CCCCC1
inactive
